Tested on: NEK11
Conditions: concentration: 1 μM, replicates: in singlicate; n = 1
Measured %Inh accompanies every entry in the list below.

{"columns": ["cpd smiles", "%Inh"],
 "data": [
  ["CC(C)(C)c1ccc(-n2cnc3c(N)ncnc32)cc1", "0%"],
  ["Cc1ccc(C)c(NC(=O)NCCNc2ccnc(Nc3ccc(F)cc3)n2)c1", "17%"],
  ["Nc1nc(-c2ccccn2)c(-c2ccnc3ccccc23)s1", "36%"],
  ["CN1CCC(n2cnc(-c3ccc(F)cc3)c2-c2ccnc(NC3CCNCC3)n2)CC1", "0%"],
  ["CNc1nccc(-c2c(-c3ccc(F)cc3)ncn2CCCN2CCOCC2)n1", "0%"],
  ["Fc1cccc(COc2ccc(Nc3ncnc4sc(-c5ccc[nH]5)cc34)cc2Cl)c1", "24%"],
  ["Fc1cccc(COc2ccc(Nc3ncnc4cc[nH]c34)cc2Cl)c1", "0%"],
  ["CSc1ccc(NC2=C(c3ccccc3Cl)C(=O)NC2=O)cc1", "0%"],
  ["Nc1nc(-c2ccc3c(N)n[nH]c3c2)cc(N2CCC[C@@H](C(=O)Nc3ccccc3)C2)n1.O=C(O)C(F)(F)F.O=C(O)C(F)(F)F", "0%"],
  ["CN1c2ccc(-c3ccc(C(=O)NCCO)cc3)cc2-c2[nH]ncc2S1(=O)=O", "0%"],
  ["COC(=O)c1cccc(NC(=O)NCCNc2ccnc(Nc3ccc(F)cc3)n2)c1", "10%"],
  ["FC(F)(F)c1ccc(-c2cc(-c3c[nH]nc3-c3ccccn3)ccn2)cc1", "24%"],
  ["Fc1ccc(Nc2nccc(-c3c(-c4ccc(Cl)cc4)nn4ncccc34)n2)cc1F", "25%"],
  ["Cc1cccc(-c2nc(Nc3ccc4[nH]nnc4c3)c3ccccc3n2)n1", "0%"]
]}

###

Tested on: PIP5K2B
Details: concentration: 1 μM, replicates: in singlicate; n = 1
Threshold check on %Inh: at or above 8% gives Y, strictly below gives N.

{"columns": ["compound", "target entity", "class label"],
 "data": [
  ["CCCc1ccc(S(=O)(=O)NC2CCN(c3ccnc(Nc4ccc(OC)cc4)n3)C2)cc1 (centres unmarked)", "PIP5K2B", "Y"],
  ["FC(F)(F)c1ccc(-c2nn3ncccc3c2-c2ccnc(Nc3cccc(C(F)(F)F)c3)n2)cc1", "PIP5K2B", "N"],
  ["Fc1cccc(COc2ccc(Nc3ncnc4sc(-c5ccc[nH]5)cc34)cc2Cl)c1", "PIP5K2B", "N"],
  ["CC(C)N1CCC(n2cnc(-c3ccc(F)cc3)c2-c2ccnc(N)n2)CC1", "PIP5K2B", "N"],
  ["Cl.Cl.c1ccc(-c2cc3ccncc3cc2OC2CCNCC2)cc1", "PIP5K2B", "Y"],
  ["O=C(CCO)NCCn1ccc2ncnc(Nc3ccc(Oc4cccc(C(F)(F)F)c4)c(Cl)c3)c21", "PIP5K2B", "N"]
]}

###

Test system: JNK1
Construct: gene MAPK8
Conditions: concentration: 1 μM, replicates: in singlicate; n = 1
Measured %Inh accompanies every entry in the list below.

{"columns": ["molecule", "%Inh / %"],
 "data": [
  ["Cc1ccc(O)cc1Nc1cc(C(F)(F)F)nc2ccc(-c3ccncc3)cc12 [GW630823]", 0],
  ["COc1cc2c(Nc3cccc(NC(=O)c4ccccc4)c3)ncnc2cc1OCCCN1CCOCC1 [GSK223810]", 34],
  ["FC(F)(F)c1ccc(-c2cc(-c3c[nH]nc3-c3ccccn3)ccn2)cc1 [GW599550]", 0],
  ["CC(C)N1CCC(n2cnc(-c3ccc(F)cc3)c2-c2ccnc(N)n2)CC1 [SB-223132]", 23]
]}

###

Tested on: FYN
Conditions: concentration: 1 μM, replicates: in singlicate; n = 1
Measured %Inh accompanies every entry in the list below.

{"columns": ["compound", "measurement unit", "%Inh"],
 "data": [
  ["COc1cc2c(Nc3cccc(NC(=O)c4ccccc4)c3)ncnc2cc1OCCCN1CCOCC1", "%", 24],
  ["Clc1cc(Nc2ncnc3cc[nH]c23)ccc1OCc1ccccn1", "%", 0],
  ["Fc1ccc(-c2ncn(CCCNCc3ccccc3)c2-c2ccncc2)cc1", "%", 0],
  ["COC(=O)c1cccc(NC(=O)NCCNc2ccnc(Nc3ccc(F)cc3)n2)c1", "%", 0],
  ["Cl.c1ccc(Cn2ncc3cc(Nc4ncnc5ccccc45)ccc32)cc1", "%", 36],
  ["O=C(c1ccc(-c2cc(-c3c[nH]nc3-c3ccccn3)ccn2)cc1)N1CCCC1", "%", 5],
  ["Cc1ccc(O)cc1Nc1cc(C(F)(F)F)nc2ccc(-c3ccncc3)cc12", "%", 7],
  ["O=C(Nc1ccccc1)Nc1ccc(Oc2ccc3nccn3n2)cc1", "%", 0],
  ["Cc1ccc(C)c(NC(=O)NCCNc2ccnc(Nc3ccc(F)cc3)n2)c1", "%", 0],
  ["CCCc1ccc(S(=O)(=O)NC2CCN(c3ccnc(Nc4ccc(OC)cc4)n3)C2)cc1 (centres unmarked)", "%", 7],
  ["FC(F)(F)c1cc(Nc2nccc(-c3c(-c4ccc(Cl)cc4)nn4ncccc34)n2)ccc1Cl", "%", 0],
  ["COc1ccc(NC(=O)Nc2ccc(C)c(-c3ccc(C(=O)Nc4ccncc4)cc3)c2)cc1", "%", 41],
  ["FC(F)(F)c1ccc(-c2cc(-c3c[nH]nc3-c3ccccn3)ccn2)cc1", "%", 38],
  ["Nc1nc(-c2ccccn2)c(-c2ccnc3ccccc23)s1", "%", 11],
  ["Cn1cc(-c2ccc3c(c2)CCN3C(=O)Cc2cccc(C(F)(F)F)c2)c2c(N)ncnc21", "%", 13],
  ["Clc1cccc(-c2nc(Nc3ccncc3)c3ccccc3n2)c1", "%", 0],
  ["CC(C)N1CCC(n2cnc(-c3ccc(F)cc3)c2-c2ccnc(N)n2)CC1", "%", 0],
  ["Cc1cc(N2CCC(NS(=O)(=O)c3ccc(F)cc3)CC2)nc(Nc2cccc(C#N)c2)n1.O=C(O)C(F)(F)F", "%", 19],
  ["CN1c2ccc(-c3ccc(C(=O)NCCO)cc3)cc2-c2[nH]ncc2S1(=O)=O", "%", 15],
  ["O=C(NCCCN1CCCC1=O)c1cnc(NCc2cc(Cl)ccc2Cl)nc1NC1CCNCC1", "%", 6],
  ["CN1CCC(n2cnc(-c3ccc(F)cc3)c2-c2ccnc(NC3CCNCC3)n2)CC1", "%", 1],
  ["CCC(CC)(CC)n1cnc2c(N)ncnc21", "%", 7],
  ["CCc1nc(-c2cccc(C)c2)c(-c2ccnc(NC(=O)c3ccccc3)c2)s1", "%", 0],
  ["Fc1cccc(COc2ccc(Nc3ncnc4sc(-c5ccc[nH]5)cc34)cc2Cl)c1", "%", 45],
  ["COc1ccc(NC(=O)c2ccc(-c3cc(-c4nnc(C)o4)ccc3C)cc2)cc1", "%", 6],
  ["Fc1ccc(Nc2nccc(-c3c(-c4ccc(Cl)cc4)nn4ncccc34)n2)cc1F", "%", 7],
  ["COc1ccc(Nc2nccc(N3CCC(NC(=O)Nc4ccc5c(c4)OCO5)C3)n2)cc1 (centres unmarked)", "%", 3],
  ["CCc1nc(-c2cccc(N(C)S(=O)(=O)c3ccccc3)c2)c(-c2ccnc(Nc3ccc(N4CCN(C(C)=O)CC4)nc3)n2)s1", "%", 40],
  ["Nc1nccc2scc(-c3ccc4c(c3)CCN4C(=O)Cc3cc(F)ccc3F)c12", "%", 12],
  ["FC(F)(F)c1ccc(-c2nn3ncccc3c2-c2ccnc(Nc3cccc(C(F)(F)F)c3)n2)cc1", "%", 0],
  ["Oc1ccc2ncnc(Nc3ccc(OCc4ccccc4)cc3)c2c1", "%", 7],
  ["CC(C)(C)OC(=O)NC1CCCN(c2cc(-c3ccc4c(N)n[nH]c4c3)nc(N)n2)C1 (centres unmarked)", "%", 26],
  ["O=C(CCO)NCCn1ccc2ncnc(Nc3ccc(Oc4cccc(C(F)(F)F)c4)c(Cl)c3)c21", "%", 0],
  ["COC(=O)c1c(-c2ccccc2)c2cc(Cl)ccc2c(=O)n1Cc1ccc(S(C)(=O)=O)cc1", "%", 0],
  ["CS(=O)(=O)CCNCc1ccc(-c2ccc3ncnc(Nc4ccc(OCc5ccccc5)c(Cl)c4)c3c2)o1.Cl", "%", 14]
]}

###

Test system: HUNK;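 also: kd values determined as follow-up on hits from a single-replicate KINOMEscan panel screen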
quantity name: Kd

{"columns": ["cpd smiles", "quantity name", "test result"],
 "data": [
  ["COC(=O)c1cccc(NC(=O)NCCNc2ccnc(Nc3ccc(F)cc3)n2)c1", "Kd", "> 10 µM"]
]}

###

System: MEK2
Construct: gene MAP2K2
Settings: concentration: 1 μM, replicates: in singlicate; n = 1
Threshold check on %Inh: at or above 2% gives Condition met, strictly below gives Condition not met.

{"columns": ["compound", "target entity", "class label"],
 "data": [
  ["COc1ccc(Nc2nccc(N3CCC(NC(=O)Nc4ccc5c(c4)OCO5)C3)n2)cc1 (stereo not drawn) [GSK1379745]", "MEK2", "Condition not met"],
  ["Cc1ccc(O)cc1Nc1cc(C(F)(F)F)nc2ccc(-c3ccncc3)cc12 [GW630823]", "MEK2", "Condition met"],
  ["Cc1ccc(C)c(NC(=O)NCCNc2ccnc(Nc3ccc(F)cc3)n2)c1 [GSK1379878]", "MEK2", "Condition not met"],
  ["Cl.Cl.c1ccc(-c2cc3ccncc3cc2OC2CCNCC2)cc1 [GSK1122999]", "MEK2", "Condition met"],
  ["Cc1cc(N2CCC(NS(=O)(=O)c3ccc(F)cc3)CC2)nc(Nc2cccc(C#N)c2)n1.O=C(O)C(F)(F)F [GSK1653537]", "MEK2", "Condition not met"],
  ["CCCc1ccc(S(=O)(=O)NC2CCN(c3ccnc(Nc4ccc(OC)cc4)n3)C2)cc1 (stereo not drawn) [GSK1379737]", "MEK2", "Condition not met"],
  ["Clc1cc(Nc2ncnc3cc[nH]c23)ccc1OCc1ccccn1", "MEK2", "Condition met"],
  ["CS(=O)(=O)CCNCc1ccc(-c2ccc3ncnc(Nc4ccc(OCc5ccccc5)c(Cl)c4)c3c2)o1.Cl [GW574783]", "MEK2", "Condition not met"],
  ["Fc1cccc(COc2ccc(Nc3ncnc4nn5ccccc5c34)cc2Cl)c1 [GW689066]", "MEK2", "Condition not met"],
  ["O=C(Nc1ccccc1F)NC1CCN(c2ccnc(Nc3ccc(F)cc3)n2)C1 (stereo not drawn) [GSK1379722]", "MEK2", "Condition not met"],
  ["Cc1cccc(-c2nc(Nc3ccc4[nH]nnc4c3)c3ccccc3n2)n1 [GW867587]", "MEK2", "Condition met"],
  ["COC(=O)c1c(-c2ccccc2)c2cc(Cl)ccc2c(=O)n1Cc1ccc(S(C)(=O)=O)cc1", "MEK2", "Condition met"],
  ["Nc1n[nH]c2nnc(-c3ccccc3)cc12 [SB-517389]", "MEK2", "Condition not met"],
  ["Cn1ccc2ncnc(Oc3ccc(NC(=O)Nc4cccnc4)c(Cl)c3)c21", "MEK2", "Condition not met"],
  ["CNc1nccc(-c2c(-c3ccc(F)cc3)ncn2C2CCN(C)CC2)n1 [SB-222903]", "MEK2", "Condition met"],
  ["Cn1cc(-c2ccc3c(c2)CCN3C(=O)Cc2cccc(C(F)(F)F)c2)c2c(N)ncnc21 [GSK2606414]", "MEK2", "Condition not met"],
  ["CC(C)(C)OC(=O)NC1CCCN(c2cc(-c3ccc4c(N)n[nH]c4c3)nc(N)n2)C1 (stereo not drawn) [GSK2286096]", "MEK2", "Condition not met"]
]}
